Experiment: activity coefficient (dimensionless); of the first substance listed, at infinite dilution; xn = mol fraction of the nth substance listed
Conditions: 338.15 K; 101 kPa; Liquid; Chromatography; x1 = 0
readout_kind: activity coefficient

>>> quantitative_readout("CCCO [propan-1-ol] + CCCCCC[n+]1ccc2ccccc2c1.N#C[S-]")
0.681
>>> quantitative_readout("CCC[N+](=O)[O-] [1-nitropropane] + CCCCCC[n+]1ccc2ccccc2c1.N#C[S-]")
1.38
>>> quantitative_readout("CCC(C)(C)OC [2-methoxy-2-methylbutane] + CCCCCC[n+]1ccc2ccccc2c1.N#C[S-]")
8.58
>>> quantitative_readout("C1COCCO1 [1,4-dioxane] + CCCCCC[n+]1ccc2ccccc2c1.N#C[S-]")
1.25
>>> quantitative_readout("C=CCCC [1-pentene] + CCCCCC[n+]1ccc2ccccc2c1.N#C[S-]")
12.9

====

Form field: activity coefficient (one value per entry).
Assay: activity coefficient (dimensionless); of the first substance listed, at infinite dilution; xn = mol fraction of the nth substance listed
Settings: 318.15 K; 101 kPa; Liquid; Chromatography; x1 = 0
readout_kind: activity coefficient

>>> quantitative_readout("C1CCCC1 [cyclopentane] + CCCCCC[n+]1ccc2ccccc2c1.N#C[S-]")
13.4
>>> quantitative_readout("C=CCCCCCC [oct-1-ene] + CCCCCC[n+]1ccc2ccccc2c1.N#C[S-]")
28.5
>>> quantitative_readout("C1CCCCCC1 [cycloheptane] + CCCCCC[n+]1ccc2ccccc2c1.N#C[S-]")
15.8
>>> quantitative_readout("CCC(C)CC [3-methylpentane] + CCCCCC[n+]1ccc2ccccc2c1.N#C[S-]")
43.4
>>> quantitative_readout("C#CCCCCCC [1-octyne] + CCCCCC[n+]1ccc2ccccc2c1.N#C[S-]")
6.43
>>> quantitative_readout("CCCCCCCCCC [decane] + CCCCCC[n+]1ccc2ccccc2c1.N#C[S-]")
96.7
>>> quantitative_readout("CCCCCCCCC [nonane] + CCCCCC[n+]1ccc2ccccc2c1.N#C[S-]")
73.2
>>> quantitative_readout("C=CCCC [1-pentene] + CCCCCC[n+]1ccc2ccccc2c1.N#C[S-]")
16.2
>>> quantitative_readout("CCOC(C)(C)C [2-ethoxy-2-methylpropane] + CCCCCC[n+]1ccc2ccccc2c1.N#C[S-]")
18.6

====

Assay: activity coefficient (dimensionless); of the first substance listed, at infinite dilution; xn = mol fraction of the nth substance listed
Settings: 358.15 K; 101 kPa; Liquid; Chromatography; x1 = 0
readout_kind: activity coefficient

>>> result("COC(C)(C)C [2-methoxy-2-methylpropane] + CCCCCC[n+]1ccc2ccccc2c1.N#C[S-]")
6.61
>>> result("CCCCO [butan-1-ol] + CCCCCC[n+]1ccc2ccccc2c1.N#C[S-]")
0.802
>>> result("Cc1cccc(C)c1 [1,3-dimethylbenzene] + CCCCCC[n+]1ccc2ccccc2c1.N#C[S-]")
2.98
>>> result("C1COCCO1 [1,4-dioxane] + CCCCCC[n+]1ccc2ccccc2c1.N#C[S-]")
1.28
>>> result("C#CCCC [1-pentyne] + CCCCCC[n+]1ccc2ccccc2c1.N#C[S-]")
3.07
>>> result("C1CCCCCCC1 [cyclooctane] + CCCCCC[n+]1ccc2ccccc2c1.N#C[S-]")
13.7
>>> result("C=CCCCCCCCC [1-decene] + CCCCCC[n+]1ccc2ccccc2c1.N#C[S-]")
40.5
>>> result("C1CCCCCC1 [cycloheptane] + CCCCCC[n+]1ccc2ccccc2c1.N#C[S-]")
11.9
>>> result("CCCCCC [hexane] + CCCCCC[n+]1ccc2ccccc2c1.N#C[S-]")
25.4
>>> result("CCCCC(C)=O [2-hexanone] + CCCCCC[n+]1ccc2ccccc2c1.N#C[S-]")
2.65
>>> result("CCCCCCCC [octane] + CCCCCC[n+]1ccc2ccccc2c1.N#C[S-]")
42.1
>>> result("CC1CCCCC1 [methylcyclohexane] + CCCCCC[n+]1ccc2ccccc2c1.N#C[S-]")
15.2
>>> result("C1CCCCC1 [cyclohexane] + CCCCCC[n+]1ccc2ccccc2c1.N#C[S-]")
10.8
>>> result("CCOCC [diethyl ether] + CCCCCC[n+]1ccc2ccccc2c1.N#C[S-]")
5.91
>>> result("C#CCCCCC [1-heptyne] + CCCCCC[n+]1ccc2ccccc2c1.N#C[S-]")
5.16
>>> result("CC(C)OC(C)C [diisopropyl ether] + CCCCCC[n+]1ccc2ccccc2c1.N#C[S-]")
15.7
>>> result("CC#N [acetonitrile] + CCCCCC[n+]1ccc2ccccc2c1.N#C[S-]")
0.994
>>> result("c1ccsc1 [thiophene] + CCCCCC[n+]1ccc2ccccc2c1.N#C[S-]")
0.98
>>> result("C=CCCCC [hex-1-ene] + CCCCCC[n+]1ccc2ccccc2c1.N#C[S-]")
13.3

====

Form field: activity coefficient (one value per entry).
Experiment: activity coefficient (dimensionless); of the first substance listed, at infinite dilution; xn = mol fraction of the nth substance listed
Details: 328.15 K; 101 kPa; Liquid; Chromatography; x1 = 0
readout_kind: activity coefficient

>>> quantitative_readout("C=CCCCCCC [oct-1-ene] + CCCCCC[n+]1ccc2ccccc2c1.N#C[S-]")
27.1
>>> quantitative_readout("CCOC(C)(C)C [2-ethoxy-2-methylpropane] + CCCCCC[n+]1ccc2ccccc2c1.N#C[S-]")
17.2
>>> quantitative_readout("Cc1cccc(C)c1 [1,3-dimethylbenzene] + CCCCCC[n+]1ccc2ccccc2c1.N#C[S-]")
2.9
>>> quantitative_readout("CCC(C)(C)C [2,2-dimethylbutane] + CCCCCC[n+]1ccc2ccccc2c1.N#C[S-]")
57.2

====

Assay: activity coefficient (dimensionless); of the first substance listed, at infinite dilution; xn = mol fraction of the nth substance listed
Conditions: 338.15 K; 101 kPa; Liquid; Chromatography; x1 = 0
readout_kind: activity coefficient

>>> result("CCO [ethanol] + CCCCCC[n+]1ccc2ccccc2c1.N#C[S-]")
0.59
>>> result("CCCOCCC [dipropyl ether] + CCCCCC[n+]1ccc2ccccc2c1.N#C[S-]")
13.2
>>> result("C#CCCC [1-pentyne] + CCCCCC[n+]1ccc2ccccc2c1.N#C[S-]")
2.97
>>> result("Cc1ccccc1C [1,2-dimethylbenzene] + CCCCCC[n+]1ccc2ccccc2c1.N#C[S-]")
2.37
>>> result("CCCCCCCCC [nonane] + CCCCCC[n+]1ccc2ccccc2c1.N#C[S-]")
62.5
>>> result("C=CCCCC [hex-1-ene] + CCCCCC[n+]1ccc2ccccc2c1.N#C[S-]")
15.4
>>> result("CC(C)CC(C)(C)C [2,2,4-trimethylpentane] + CCCCCC[n+]1ccc2ccccc2c1.N#C[S-]")
57.7
>>> result("CCC(C)CC [3-methylpentane] + CCCCCC[n+]1ccc2ccccc2c1.N#C[S-]")
31.9
>>> result("C#CCCCCCC [1-octyne] + CCCCCC[n+]1ccc2ccccc2c1.N#C[S-]")
6.64

====

Test: activity coefficient (dimensionless); of the first substance listed, at infinite dilution; xn = mol fraction of the nth substance listed
Settings: 368.15 K; 101 kPa; Liquid; Chromatography; x1 = 0
Form field: activity coefficient (one value per entry).
readout_kind: activity coefficient

>>> quantitative_readout("O [water] + CCCCCC[n+]1ccc2ccccc2c1.N#C[S-]")
0.418
>>> quantitative_readout("CCCCO [butan-1-ol] + CCCCCC[n+]1ccc2ccccc2c1.N#C[S-]")
0.788
>>> quantitative_readout("C1CCCCCCC1 [cyclooctane] + CCCCCC[n+]1ccc2ccccc2c1.N#C[S-]")
12.9
>>> quantitative_readout("C#CCCCC [1-hexyne] + CCCCCC[n+]1ccc2ccccc2c1.N#C[S-]")
3.96

====

Form field: activity coefficient (one value per entry).
Assay: activity coefficient (dimensionless); of the first substance listed, at infinite dilution; xn = mol fraction of the nth substance listed
Conditions: 338.15 K; 101 kPa; Liquid; Chromatography; x1 = 0
readout_kind: activity coefficient

>>> quantitative_readout("CC(C)OC(C)C [diisopropyl ether] + CCCCCC[n+]1ccc2ccccc2c1.N#C[S-]")
17.6
>>> quantitative_readout("C=CCCCCCC [oct-1-ene] + CCCCCC[n+]1ccc2ccccc2c1.N#C[S-]")
25.6
>>> quantitative_readout("CCOCC [diethyl ether] + CCCCCC[n+]1ccc2ccccc2c1.N#C[S-]")
6.34
>>> quantitative_readout("C1CCCCCC1 [cycloheptane] + CCCCCC[n+]1ccc2ccccc2c1.N#C[S-]")
13.4
>>> quantitative_readout("c1ccsc1 [thiophene] + CCCCCC[n+]1ccc2ccccc2c1.N#C[S-]")
0.943
>>> quantitative_readout("CCCC(C)=O [pentan-2-one] + CCCCCC[n+]1ccc2ccccc2c1.N#C[S-]")
2.11
>>> quantitative_readout("C1CCCCC1 [cyclohexane] + CCCCCC[n+]1ccc2ccccc2c1.N#C[S-]")
12.4
>>> quantitative_readout("C1CCCCCCC1 [cyclooctane] + CCCCCC[n+]1ccc2ccccc2c1.N#C[S-]")
15.4
>>> quantitative_readout("Cc1cccc(C)c1 [1,3-dimethylbenzene] + CCCCCC[n+]1ccc2ccccc2c1.N#C[S-]")
2.93
